Quick reference for IC50 among some compounds
Target: 11β-HSD1 (Homo sapiens, UniProt P28845)
Construct: detecting cortisol generated from cortisterone by human liver microsomes; from tissue; host or cells: human liver microsomes
Sequence (P28845 whole entry): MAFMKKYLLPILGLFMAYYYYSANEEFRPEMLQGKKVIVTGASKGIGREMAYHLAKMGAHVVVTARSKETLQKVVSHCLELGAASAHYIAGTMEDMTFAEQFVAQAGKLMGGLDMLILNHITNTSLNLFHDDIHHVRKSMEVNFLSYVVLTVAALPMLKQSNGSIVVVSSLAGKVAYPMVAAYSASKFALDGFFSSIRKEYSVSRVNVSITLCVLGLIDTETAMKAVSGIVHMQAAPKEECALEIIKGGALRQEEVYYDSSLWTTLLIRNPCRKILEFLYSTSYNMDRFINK
Assay: In vitro inhibition of 11β-HSD1, HTRF detection of cortisol generated from cortisone by human liver microsomes
Format: biochemical
Details: 11β-HSD IC50 (nM), 1 hour at 37° C., pH 6.0, NADPH 200 μM, cortisone 80 nM, inhibition relative to carbenoxolone signal
Description: Cortisol generated in the reaction is then detected with a competitive immunoassay, involving two HTRF conjugates: cortisol linked to XL665 and anti-cortisol antibody labeled with Europium cryptate. The incubation period for detection reaction was typically 2 hours. […] The ratio of the two emission signals is then calculated (Em665*10000/Em615). […] Percent inhibition of each compound was determined relative to the carbenoxolone signal and IC50 curves were generated.
Give the value, in units of nM, as a plain number.

// solved cases for IC50 follow
{"columns": ["compound", "target system", "result units", "endpoint result"],
 "data": [
  ["O=C(c1ccc2nc[nH]c2c1)N1CCC2CC1Cc1ccc(O)cc12 (centres unmarked)", "11β-HSD1 (Homo sapiens, UniProt P28845)", "nM", 746],
  ["CC1(C)[C@H]2Cc3c(O)cccc3[C@]1(C)CCN2C(=O)c1ccc(C(=O)N2CCOCC2)cc1", "11β-HSD1 (Homo sapiens, UniProt P28845)", "nM", 1230],
  ["CC12CCN(C(=O)c3ccc4nc[nH]c4c3)C(Cc3cc(C(=O)O)ccc31)C2(C)C (centres unmarked)", "11β-HSD1 (Homo sapiens, UniProt P28845)", "nM", 1660],
  ["CC1(C)[C@H]2Cc3c(O)cccc3[C@]1(C)CCN2C(=O)c1ccc(CN2CCC(O)CC2)cc1", "11β-HSD1 (Homo sapiens, UniProt P28845)", "nM", 1650],
  ["Cc1nc2cc3c(cc2o1)C[C@H]1N(C(=O)c2ccc4nc[nH]c4c2)CC[C@]3(C)C1(C)C", "11β-HSD1 (Homo sapiens, UniProt P28845)", "nM", 32],
  ["CC1(C)[C@H]2Cc3c(O)cccc3[C@]1(C)CCN2C(=O)c1ccc(N2CCOCC2)cc1", "11β-HSD1 (Homo sapiens, UniProt P28845)", "nM", 686]
]}

Q: Enter reported IC50 observed with 11β-HSD1 (Homo sapiens, UniProt P28845) for "Cc1nc2cc3c(cc2n1C)C[C@H]1N(C(=O)c2ccc4nc[nH]c4c2)CC[C@]3(C)C1(C)C"
Result: 113

Q: Request: COc1cc2c(cc1OC)C1(C)CCN(C(=O)c3ccc4nc[nH]c4c3)C(C2)C1(C)C (centres unmarked)
Result: 148

====

molecular target: 11β-HSD1 (Homo sapiens); construct: detecting cortisol generated from cortisterone by human liver microsomes; from tissue; host or cells: human liver microsomes; experiment: In vitro inhibition of 11β-HSD1, HTRF detection of cortisol generated from cortisone by human liver microsomes; assay type: biochemical; conditions: 11β-HSD IC50 (nM), 1 hour at 37° C., pH 6.0, NADPH 200 μM, cortisone 80 nM, inhibition relative to carbenoxolone signal
Please note: IC50 exactly at 1000 nM is Not met. Only values below 1000 nM get Met.

{"columns": ["compound", "label value"],
 "data": [
  ["CC(=O)c1ccc2c(c1)C[C@H]1N(C(=O)c3ccc4nc[nH]c4c3)CC[C@]2(C)C1(C)C", "Met"]
]}

Q: Given "CC1(C)[C@H]2Cc3c(O)cccc3[C@]1(C)CCN2C(=O)c1cccc(C(N)=O)c1" , is recorded IC50 strictly lower than 1000 nM?
Result: Met

====

Target: 11β-HSD1 (Homo sapiens)
Construct: detecting cortisol generated from cortisterone by human liver microsomes; from tissue; host or cells: human liver microsomes
Assay: In vitro inhibition of 11β-HSD1, HTRF detection of cortisol generated from cortisone by human liver microsomes
Format: biochemical
Conditions: 11β-HSD IC50 (nM), 1 hour at 37° C., pH 6.0, NADPH 200 μM, cortisone 80 nM, inhibition relative to carbenoxolone signal
Description: Cortisol generated in the reaction is then detected with a competitive immunoassay, involving two HTRF conjugates: cortisol linked to XL665 and anti-cortisol antibody labeled with Europium cryptate. The incubation period for detection reaction was typically 2 hours. […] The ratio of the two emission signals is then calculated (Em665*10000/Em615). […] Percent inhibition of each compound was determined relative to the carbenoxolone signal and IC50 curves were generated.
measured quantity: IC50 (nM)
Give the value, in units of nM, as a plain number.

// solved cases for IC50 follow
{"columns": ["molecule", "measured quantity", "endpoint result"],
 "data": [
  ["CC1(C)[C@H]2Cc3ccccc3[C@]1(C)CCN2C(=O)c1ccc(O)nc1 [Example 303]", "IC50", 717],
  ["CC1(C)[C@H]2Cc3c(O)cccc3[C@]1(C)CCN2C(=O)c1ccc(C(=O)Nc2ccccc2)cc1 [Example 135]", "IC50", 3520],
  ["CC1(C)[C@H]2Cc3ccccc3[C@]1(C)CCN2C(=O)c1cc(Cl)c(O)c(Cl)c1 [Example 320]", "IC50", 165],
  ["CC1(C)[C@H]2Cc3c(O)cccc3[C@]1(C)CCN2C(=O)c1ccc(CNC(=O)c2ccccc2)cc1 [Example 125]", "IC50", 989]
]}

Q: Need IC50, item Cc1cc2c(cc1O)C[C@@H]1N(C(=O)c3ccc4nc[nH]c4c3)CC[C@@]2(C)C1(C)C (stereo in doubt) [Example 68]
Result: 372

Q: Request: N#CC12CCN(C(=O)c3ccc4nc[nH]c4c3)C(Cc3ccc(O)cc31)C2 (stereo not shown) [Example 226]
Result: 1410

Q: Request: COc1ccc2c(c1)C[C@@H]1N(C(=O)c3ccc4nc[nH]c4c3)CC[C@@]2(C)C1(C)C [Example 147]
Result: 1010

Q: Request: CC[C@H]1[C@H]2Cc3ccc(O)cc3[C@]1(CC)CCN2C(=O)c1ccc2nc[nH]c2c1 (racemic) [Example 86]
Result: 2400

Q: Request: CC1(C)[C@H]2Cc3ccccc3[C@]1(C)CCN2C(=O)c1ccc(N)nc1 [Example 304]
Result: 251

Q: Request: COc1ccc2c(c1NS(C)(=O)=O)[C@]1(C)CCN(C(=O)c3ccc4nc[nH]c4c3)[C@H](C2)[C@H]1C [Example 268]
Result: 931

Q: Request: CC1(C)[C@H]2Cc3c(O)cccc3[C@]1(C)CCN2C(=O)c1ccc(CN2CCCC2=O)cc1 [Example 130]
Result: 1610

Q: Request: Cc1[nH]c2ccccc2c1C(=O)N1CC[C@@]2(C)c3cccc(O)c3C[C@@H]1C2(C)C [Example 197]
Result: 3830

Q: Request: Cn1cnc2cc(C(=O)N3CC[C@@]4(C)c5cccc(O)c5C[C@@H]3C4(C)C)ccc21 [Example 19]
Result: 658

Q: Request: CC12CCN(C(=O)c3ccc4nc[nH]c4c3)C(Cc3cc(N)ccc31)C2(C)C (stereo not shown) [Example 141]
Result: 59

Q: Request: COc1cccc2c1C[C@H]1N(C(=O)c3ccoc3C)CC[C@]2(C)C1(C)C [Example 104]
Result: 1390

Q: Request: CC1(C)[C@H]2Cc3cc4oc([C@H]5CCCO5)nc4cc3[C@]1(C)CCN2C(=O)c1ccc2nc[nH]c2c1 [Example 337]
Result: 52

====

biological target: 11β-HSD1 (Homo sapiens); construct: detecting cortisol generated from cortisterone by human liver microsomes; from tissue; host or cells: human liver microsomes; experiment: In vitro inhibition of 11β-HSD1, HTRF detection of cortisol generated from cortisone by human liver microsomes; type: biochemical; conditions: 11β-HSD IC50 (nM), 1 hour at 37° C., pH 6.0, NADPH 200 μM, cortisone 80 nM, inhibition relative to carbenoxolone signal
Quick reference for IC50 among some compounds
Give the value, in units of nM, as a plain number.

// solved cases for IC50 follow
{"columns": ["compound", "result units", "endpoint result"],
 "data": [
  ["Cc1ccc(-c2ccc3c(c2)[C@]2(C)CCN(C(=O)c4ccc5nc[nH]c5c4)[C@H](C3)[C@H]2C)nn1 [Example 263]", "nM", 71],
  ["CC1(C)[C@H]2Cc3c(O)cccc3[C@]1(C)CCN2C(=O)c1cccc(C#N)c1 [Example 10]", "nM", 1780],
  ["COc1ccc2c(c1)[C@]1(C)CCN(C(=O)c3ccccc3[N+](=O)[O-])[C@H](C2)[C@@H]1C [Example 108]", "nM", 140]
]}

Moving on to another compound below.
Q: Need IC50, item CC1(C)[C@H]2Cc3c(O)cccc3[C@]1(C)CCN2C(=O)c1ccc(CN2CCCC2)cc1 [Example 120]
Result: 3840

====

Quick reference for log10 IC50 among some molecules
molecular target: 11β-HSD1 (Homo sapiens, UniProt P28845); construct: detecting cortisol generated from cortisterone by human liver microsomes; from tissue; host or cells: human liver microsomes; assay: In vitro inhibition of 11β-HSD1, HTRF detection of cortisol generated from cortisone by human liver microsomes; assay type: biochemical; details: 11β-HSD IC50 (nM), 1 hour at 37° C., pH 6.0, NADPH 200 μM, cortisone 80 nM, inhibition relative to carbenoxolone signal
Recorded IC50 (log10, nM)

// solved cases for log10 IC50 follow
{"columns": ["molecule", "log10 IC50"],
 "data": [
  ["C[C@@H]1[C@H]2Cc3ccc(-c4ccccc4)cc3[C@]1(C)CCN2C(=O)c1ccc2nc[nH]c2c1 [Example 249]", 2.42],
  ["CC1(C)[C@H]2Cc3c(O)cccc3[C@]1(C)CCN2C(=O)c1ccc(CN2CCOCC2=O)cc1 [Example 207]", 2.35],
  ["COc1c(F)cc(C(=O)N2CC[C@@]3(C)c4ccccc4C[C@@H]2C3(C)C)cc1F [Example 331]", 2.64]
]}

Q: Need log10 IC50, item CCC12CCN(C(=O)c3ccc4nc[nH]c4c3)C(Cc3ccc(O)cc31)C2 (stereo not shown) [Example 90]
Result: 2.67

Q: Request: CC1(C)[C@H]2Cc3c(O)cccc3[C@]1(C)CCN2C(=O)c1ccccn1 [Example 128]
Result: 3.11
